Recorded max activity, one value per entry.
assay.name: C. albicans growth inhibition without fluconazole, dose response, counter-screen for antifungal drug resistance project, CaCi-2 strain, Alamar Blue, dry powder, set 8 (AID 493157)
particulars: C. albicans CaCi-2 growth without fluconazole, Alamar Blue, 48 h; at 0.1 µM
# output: bare number, implied unit %

What value of max activity has been recorded for this entry: COC(=O)C(C)(C)n1nc(-c2ccccc2)c2ccccc21
-31.3

Now consider O=C(Cn1c2ccccc2c2nc3n(c(=O)c21)CCS3)N1CCCCC1 .
-24.6

---

Recorded max activity, one value per entry.
assay.name: C. albicans growth inhibition without fluconazole, dose response, counter-screen for antifungal drug resistance project, CaCi-2 strain, Alamar Blue, dry powder, set 8 (AID 493157)
particulars: C. albicans CaCi-2 (fluconazole-resistant clinical isolate) growth without fluconazole, Alamar Blue, 48 h; at 0.1 µM
# output: bare number, implied unit %

>  <structure.smiles>
O=C(Cn1c2ccc(F)cc2c2nc3n(c(=O)c21)CCS3)N1CCCC1

>  <max activity (%)>
-25.8

$$$$
>  <structure.smiles>
COC(=O)Cn1nc(-c2ccccc2)c2ccc(C(F)(F)F)cc21

>  <max activity (%)>
-34

$$$$

Next:
What value of max activity has been recorded for this entry: COC(=O)Cn1nc(-c2ccccc2)c2cccc(C(F)(F)F)c21
-21.2
